Cited source: ChEMBL document CHEMBL1212809

# target-or-system: Acetylcholinesterase (Danio rerio, UniProt Q9DDE3)
# Sequence (Q9DDE3 whole entry): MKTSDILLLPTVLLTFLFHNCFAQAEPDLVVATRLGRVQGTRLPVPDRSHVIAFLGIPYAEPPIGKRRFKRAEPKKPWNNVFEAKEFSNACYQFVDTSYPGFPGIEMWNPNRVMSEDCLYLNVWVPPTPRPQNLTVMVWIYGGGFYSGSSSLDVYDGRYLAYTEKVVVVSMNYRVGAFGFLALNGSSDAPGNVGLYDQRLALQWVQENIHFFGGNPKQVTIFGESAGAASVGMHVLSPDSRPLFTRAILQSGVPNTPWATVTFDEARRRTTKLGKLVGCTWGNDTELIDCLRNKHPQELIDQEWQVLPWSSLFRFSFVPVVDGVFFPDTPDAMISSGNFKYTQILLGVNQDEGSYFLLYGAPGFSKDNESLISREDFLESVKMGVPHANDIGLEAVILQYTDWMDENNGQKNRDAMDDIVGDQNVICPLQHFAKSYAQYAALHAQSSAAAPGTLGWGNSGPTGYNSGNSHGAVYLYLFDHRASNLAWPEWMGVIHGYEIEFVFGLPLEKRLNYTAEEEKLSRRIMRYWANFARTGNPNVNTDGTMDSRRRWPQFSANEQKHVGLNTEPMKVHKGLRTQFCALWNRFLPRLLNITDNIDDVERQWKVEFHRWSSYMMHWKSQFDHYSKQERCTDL
endpoint-name: pIC50
Just so you know, pIC50 here is -log10 of the concentration in molar units; reply with that number alone.

Prompt line: Report value: pIC50, system: Acetylcholinesterase (Danio rerio, UniProt Q9DDE3), molecule: O=C1c2ccccc2-c2nc3ncnn3c(-c3ccccc3Cl)c21
Response line: 6.30
